All values here come from patent US9353090B2.

# Assay method text: physchem
# Measurement parameters: pH 6.8, aqueous buffer, kinetic from dmso stock, Solubility (pH 6.8)
Measured endpoint: solubility at 24 h (µg/mL)

The cases that follow already have their solubility at 24 h on record.
Cc1c(COc2ccccc2-c2cccc(N3CC[C@@]4(C(=O)O)C[C@H]4C3)n2)ccc2c1CCN(Cc1cncn1C)C2: 0.1
Cc1cccc(-c2csc(N3CC[C@@]4(C(=O)O)C[C@H]4C3)n2)c1OCc1ccc2c(c1C)CCN(C1CCCOC1)C2 (stereo partly shown): 28
Cc1ccc(OCc2cnc3c(c2)CCN(C2CCOCC2)C3)c(-c2csc(N3CC[C@@]4(C(=O)O)C[C@H]4C3)n2)c1: 57
COc1cc(COc2c(C)cccc2-c2cccc(N3C[C@@H]4C[C@]4(C(=O)O)C3)n2)cc2c1CN(C1CCOCC1)CC2: 68
CO[C@H]1CN(c2cccc(-c3cccc(C)c3OCc3ccc4c(c3C)CCN(C3COC3)CC4)n2)CC[C@H]1C(=O)O: 80.5
O=C(O)[C@@]12CCN(c3cccc(-c4ccccc4OCc4ccc5c(c4)CCN(C4CCOCC4)C5)n3)C[C@@H]1C2: 57
COC[C@H]1N(c2cccc(-c3cccc(C)c3OCc3cc(F)c4c(c3)CCN(C3CCOCC3)CC4)n2)C[C@@H]2C[C@@]21C(=O)O: 107
CO[C@H]1CN(c2nc(-c3cccc(Cl)c3OCc3ccc4c(c3)[C@@H](C)CN(C3COC3)CC4)cs2)CC[C@H]1C(=O)O: 50.5

P: CCO[C@@H]1CN(c2cccc(-c3cccc(C)c3OCc3cc4c(c(OC)c3)CN(C3CCOCC3)CC4)n2)CC[C@@H]1C(=O)O
Q: CO[C@@H]1CN(c2cccc(-c3cccc(C)c3OCc3ccc4c(c3C)CN(C3CCOCC3)C4)n2)CC[C@@H]1C(=O)O
R: Cc1c(COc2ccccc2-c2ccnc(N3C[C@@H]4C[C@]4(C(=O)O)C3)n2)ccc2c1CCN(C1CCOCC1)C2
S: Cc1ccc(OCc2ccc3c(c2C)CCN(C2CCOC2)C3)c(-c2csc(N3CC[C@@]4(C(=O)O)C[C@H]4C3)n2)c1 (stereo partly shown)
T: CO[C@H]1CN(c2nc(-c3cc(C)ccc3OCc3cc(C)c4c(c3C)CCN(C3CCOCC3)C4)cs2)CC[C@H]1C(=O)O
Prompt: Descending sort on solubility at 24 h required. Arrange the labels as the request states and list them.
Response: P, Q, R, T, S
